Reported AC50 for target or system Histamine H3 receptor (Homo sapiens, UniProt Q9Y5N1), by entry. Further: assay procedure not described here.

Exercise: Given the entry `CC(C)Cc1ccc([C@H](C)C(=O)O)cc1` , what AC50 was observed with Histamine H3 receptor (Homo sapiens, UniProt Q9Y5N1)?
Solution: > 30 µM

Exercise: Given the entry CCN1CCCC1CNC(=O)c1cc(S(=O)(=O)CC)ccc1OC (stereo unspecified) [SULTOPRIDE] , what AC50 was observed with Histamine H3 receptor (Homo sapiens, UniProt Q9Y5N1)?
Solution: 22 µM

Exercise: Given the entry `CCOc1cc([C@@H](CS(C)(=O)=O)N2C(=O)c3cccc(NC(C)=O)c3C2=O)ccc1OC` , what AC50 was observed with Histamine H3 receptor (Homo sapiens, UniProt Q9Y5N1)?
Solution: > 30 µM

Exercise: Given the entry `O=C(O)Cc1ccccc1Nc1c(Cl)cccc1Cl` , what AC50 was observed with Histamine H3 receptor (Homo sapiens, UniProt Q9Y5N1)?
Solution: > 10 µM

Exercise: Given the entry `Cn1cc(C(=O)[C@@H]2CCc3nc[nH]c3C2)c2ccccc21` , what AC50 was observed with Histamine H3 receptor (Homo sapiens, UniProt Q9Y5N1)?
Solution: > 30 µM

Exercise: Given the entry `CC(C)N(CCCCOCC(=O)O)c1cnc(-c2ccccc2)c(-c2ccccc2)n1` , what AC50 was observed with Histamine H3 receptor (Homo sapiens, UniProt Q9Y5N1)?
Solution: > 30 µM

Exercise: Given the entry CN(Cc1cnc2nc(N)nc(N)c2n1)c1ccc(C(=O)N[C@@H](CCC(=O)O)C(=O)O)cc1 [METHOTREXATE] , what AC50 was observed with Histamine H3 receptor (Homo sapiens, UniProt Q9Y5N1)?
Solution: > 10 µM

Exercise: Given the entry `CCOC(=O)[C@@H](N)Cc1ccc(-c2cc(O[C@H](c3ccc(Cl)cc3-n3ccc(C)n3)C(F)(F)F)nc(N)n2)cc1` , what AC50 was observed with Histamine H3 receptor (Homo sapiens, UniProt Q9Y5N1)?
Solution: > 30 µM

Exercise: Given the entry `CN(C)CCCN1c2ccccc2CCc2ccccc21` , what AC50 was observed with Histamine H3 receptor (Homo sapiens, UniProt Q9Y5N1)?
Solution: > 10 µM

Exercise: Given the entry `Oc1cc(O)c(Cl)cn1` , what AC50 was observed with Histamine H3 receptor (Homo sapiens, UniProt Q9Y5N1)?
Solution: > 30 µM

Exercise: Given the entry `NNC(=O)c1ccncc1` , what AC50 was observed with Histamine H3 receptor (Homo sapiens, UniProt Q9Y5N1)?
Solution: > 30 µM

Exercise: Given the entry CC(C(=O)O)c1ccc2oc(-c3ccc(Cl)cc3)nc2c1 (stereo unspecified) , what AC50 was observed with Histamine H3 receptor (Homo sapiens, UniProt Q9Y5N1)?
Solution: > 30 µM

Exercise: Given the entry `COc1cc(C(=O)OCc2cccc(COC(=O)c3cc(OC)c(OC)c(OC)c3)n2)cc(OC)c1OC` , what AC50 was observed with Histamine H3 receptor (Homo sapiens, UniProt Q9Y5N1)?
Solution: > 30 µM

Exercise: Given the entry `CC/C=C\C/C=C\C/C=C\C/C=C\C/C=C\CCCC(=O)OCC` , what AC50 was observed with Histamine H3 receptor (Homo sapiens, UniProt Q9Y5N1)?
Solution: > 30 µM

Exercise: Given the entry O=C(O)CCNC(=O)c1ccc(/N=N/c2ccc(O)c(C(=O)O)c2)cc1 [BALSALAZIDE] , what AC50 was observed with Histamine H3 receptor (Homo sapiens, UniProt Q9Y5N1)?
Solution: 35.5 µM

Exercise: Given the entry CC(C)(Oc1ccc(CCNC(=O)c2ccc(Cl)cc2)cc1)C(=O)O [BEZAFIBRATE] , what AC50 was observed with Histamine H3 receptor (Homo sapiens, UniProt Q9Y5N1)?
Solution: > 10 µM

Exercise: Given the entry `OC[C@H]1O[C@@H](n2cnc3c2NC=NC[C@H]3O)C[C@@H]1O` , what AC50 was observed with Histamine H3 receptor (Homo sapiens, UniProt Q9Y5N1)?
Solution: > 30 µM

Exercise: Given the entry `CCOC(=O)c1ccc(C#Cc2ccc3c(c2)C(C)(C)CCS3)nc1` , what AC50 was observed with Histamine H3 receptor (Homo sapiens, UniProt Q9Y5N1)?
Solution: > 10 µM

Exercise: Given the entry `O=C(CCCN1CCC(O)(c2ccc(Br)cc2)CC1)c1ccc(F)cc1` , what AC50 was observed with Histamine H3 receptor (Homo sapiens, UniProt Q9Y5N1)?
Solution: > 30 µM

Exercise: Given the entry CN(CCOc1ccc(CC2SC(=O)NC2=O)cc1)c1ccccn1 (stereo unspecified) , what AC50 was observed with Histamine H3 receptor (Homo sapiens, UniProt Q9Y5N1)?
Solution: > 30 µM

Exercise: Given the entry `CCCN1CCCC[C@H]1C(=O)Nc1c(C)cccc1C` , what AC50 was observed with Histamine H3 receptor (Homo sapiens, UniProt Q9Y5N1)?
Solution: > 30 µM

Exercise: Given the entry `CO/N=C(\C(=O)N[C@@H]1C(=O)N2C(C(=O)O)=CCS[C@H]12)c1csc(N)n1` , what AC50 was observed with Histamine H3 receptor (Homo sapiens, UniProt Q9Y5N1)?
Solution: > 30 µM

Exercise: Given the entry CC(CN1c2ccccc2Sc2ccccc21)N(C)C (stereo unspecified) , what AC50 was observed with Histamine H3 receptor (Homo sapiens, UniProt Q9Y5N1)?
Solution: > 10 µM

Exercise: Given the entry `O=c1c(O)c(-c2ccc(O)c(O)c2)oc2cc(O)cc(O)c12` , what AC50 was observed with Histamine H3 receptor (Homo sapiens, UniProt Q9Y5N1)?
Solution: > 10 µM

Exercise: Given the entry Cn1c(=O)c2c(ncn2CCOC(=O)C(C)(C)Oc2ccc(Cl)cc2)n(C)c1=O [THEOFIBRATE] , what AC50 was observed with Histamine H3 receptor (Homo sapiens, UniProt Q9Y5N1)?
Solution: > 30 µM

Exercise: Given the entry `CCOC(=O)c1c(CSc2ccccc2)n(C)c2cc(Br)c(O)c(CN(C)C)c12` , what AC50 was observed with Histamine H3 receptor (Homo sapiens, UniProt Q9Y5N1)?
Solution: > 30 µM

Exercise: Given the entry CC(=O)O[C@]1(C(C)=O)CC[C@H]2[C@@H]3C=C(Cl)C4=CC(=O)[C@@H]5C[C@@H]5[C@]4(C)[C@H]3CC[C@@]21C [CYPROTERONE ACETATE] , what AC50 was observed with Histamine H3 receptor (Homo sapiens, UniProt Q9Y5N1)?
Solution: > 10 µM

Exercise: Given the entry `O=C(NCCO[N+](=O)[O-])c1cccnc1` , what AC50 was observed with Histamine H3 receptor (Homo sapiens, UniProt Q9Y5N1)?
Solution: > 30 µM

Exercise: Given the entry `COc1cc(C(=O)NS(=O)(=O)c2ccccc2C)ccc1Cc1cn(C)c2ccc(NC(=O)OC3CCCC3)cc12` , what AC50 was observed with Histamine H3 receptor (Homo sapiens, UniProt Q9Y5N1)?
Solution: > 10 µM

Exercise: Given the entry `CC[C@H](C)C(=O)O[C@H]1C[C@@H](C)C=C2C=C[C@H](C)[C@H](CC[C@@H]3C[C@@H](O)CC(=O)O3)[C@H]21` , what AC50 was observed with Histamine H3 receptor (Homo sapiens, UniProt Q9Y5N1)?
Solution: > 10 µM

Exercise: Given the entry `CNCCc1ccc(OC(=O)C(C)C)c(OC(=O)C(C)C)c1` , what AC50 was observed with Histamine H3 receptor (Homo sapiens, UniProt Q9Y5N1)?
Solution: > 30 µM

Exercise: Given the entry CCN1CC(CCN2CCOCC2)C(c2ccccc2)(c2ccccc2)C1=O (stereo unspecified) , what AC50 was observed with Histamine H3 receptor (Homo sapiens, UniProt Q9Y5N1)?
Solution: > 30 µM

Exercise: Given the entry `CCOC(=O)C1=C(C)NC(C)=C(C(=O)OCC)C1c1ccccc1/C=C/C(=O)OC(C)(C)C` , what AC50 was observed with Histamine H3 receptor (Homo sapiens, UniProt Q9Y5N1)?
Solution: > 30 µM

Exercise: Given the entry `O=C(/C=C/c1cccc(S(=O)(=O)Nc2ccccc2)c1)NO` , what AC50 was observed with Histamine H3 receptor (Homo sapiens, UniProt Q9Y5N1)?
Solution: > 10 µM

Exercise: Given the entry C[N+]12CCC(CC1)C(OC(=O)C(O)(c1ccccc1)c1ccccc1)C2 (stereo unspecified) , what AC50 was observed with Histamine H3 receptor (Homo sapiens, UniProt Q9Y5N1)?
Solution: > 30 µM

Exercise: Given the entry CC(Cc1cccc(C(F)(F)F)c1)NCCOC(=O)c1ccccc1 (stereo unspecified) , what AC50 was observed with Histamine H3 receptor (Homo sapiens, UniProt Q9Y5N1)?
Solution: > 30 µM
